molecular target: UniProt P41597; experiment: Calcium activity assayed on the FLIPR Tetra in HEK-Gqi5 cells stably expressing CCR2; details: FLIPR Tetra calcium assay
pIC50: −log10 of the molar value.
endpoint_name: pIC50

1. O=S(=O)(Nc1cc(Cl)ccc1[S+]([O-])Cc1cccnc1)c1ccc(Cl)c(C(F)(F)F)c1 (centres unmarked): 6.95
2. CS(=O)(=O)c1ccc(Cl)cc1NS(=O)(=O)c1ccc(I)cc1: 5.97
3. Nc1cccc(CS(=O)(=O)c2ccc(Cl)cc2NS(=O)(=O)c2cc3ccccc3o2)n1: 7.82

A. CS(=O)(=O)c1ccc(Cl)cc1NS(=O)(=O)c1ccc(Cl)cc1
B. CN(C)C(=O)CS(=O)(=O)c1ccc(Cl)cc1NS(=O)(=O)c1ccc(Cl)c(C(F)(F)F)c1
Between A and B , whose recorded pIC50 is greater? Your answer should be the label attached to the chosen record.
A

I. Nc1cccc(CS(=O)(=O)c2ccc(Cl)cc2NS(=O)(=O)c2ccccc2)c1
II. Nc1cccc(CS(=O)(=O)c2ccc(Cl)cc2NS(=O)(=O)c2ccc(Cl)cc2F)c1
III. CSc1ccc(Cl)cc1NS(=O)(=O)c1ccc(C(F)(F)F)c([N+](=O)[O-])c1
IV. O=S(=O)(Cc1c[nH]cn1)c1ccc(Cl)cc1NS(=O)(=O)c1ccc(Cl)c(C(F)(F)F)c1
V. O=[N+]([O-])c1ccc(CSc2ccc(Cl)cc2NS(=O)(=O)c2cc3ccccc3o2)cc1
# desc sort on pIC50 across 5 compounds Ranked list of labels, please, in the requested order.
IV, V, II, III, I
(IV: 7.29, V: 6.83, II: 6.61, III: 6.31, I: 5.91)

P. CN(C)C(=O)CC[S+]([O-])c1ccc(Cl)cc1NS(=O)(=O)c1ccc(Cl)cc1F (centres unmarked)
Q. NC(=O)NCCSc1ccc(Cl)cc1NS(=O)(=O)c1cc2ccccc2o1
R. Nc1cccc(CS(=O)(=O)c2ccc(Cl)cc2NS(=O)(=O)c2ccc(Cl)cc2)c1
Arrange these 3 compounds in increasing order of pIC50. Ranked list of labels, please, in the requested order.
R, P, Q
(R: 6.38, P: 6.66, Q: 7.10)

1. O=S(=O)(Nc1cc(Cl)ccc1SCc1cccc(O)c1)c1cc2ccccc2o1
2. O=[N+]([O-])c1cccc(C[S+]([O-])c2ccc(F)cc2NS(=O)(=O)c2cc3ccccc3o2)c1 (centres unmarked)
3. O=[N+]([O-])c1cccc(C[S+]([O-])c2ccccc2NS(=O)(=O)c2cc3ccccc3o2)c1 (centres unmarked)
4. CN(C)C(=O)CCSc1ccc(Cl)cc1NS(=O)(=O)c1ccc(F)cc1F
5. Cc1n[nH]c(C)c1CCS(=O)(=O)c1ccc(Cl)cc1NS(=O)(=O)c1cc2ccccc2o1
Arrange these 5 compounds in increasing order of pIC50. Ranked list of labels, please, in the requested order.
4, 5, 3, 2, 1
(4: 5.67, 5: 5.96, 3: 6.19, 2: 6.50, 1: 7.11)

###

biological target: CCR2 (Homo sapiens (Human)); assay: Calcium activity assayed on the FLIPR Tetra in HEK-Gqi5 cells stably expressing CCR2; assay type: cell-based; conditions: FLIPR Tetra calcium assay
endpoint_name: CCR2 % ANTAGONISM (%)

Reference set (5 entries):
1. CN(C)C(=O)CCS(=O)(=O)c1ccc(Cl)cc1NS(=O)(=O)c1ccc(Cl)cc1F: 97
2. CC(C)(C)OC(=O)Nc1cc(CS(=O)(=O)c2ccc(Cl)cc2NS(=O)(=O)c2cc3ccccc3o2)ccn1: 76
3. NC(=O)NCCS(=O)(=O)c1ccc(Cl)cc1NS(=O)(=O)c1cc2ccccc2o1: 68
4. O=C1NCC(CS(=O)(=O)c2ccc(Cl)cc2NS(=O)(=O)c2cc3ccccc3o2)O1 (stereo not drawn): 98
5. Cc1n[nH]c(C)c1CCS(=O)(=O)c1ccc(Cl)cc1NS(=O)(=O)c1cc2ccccc2o1: 96

P. O=S(=O)(Cc1ncc[nH]1)c1ccc(Cl)cc1NS(=O)(=O)c1ccc(Cl)c(C(F)(F)F)c1
Q. O=S(=O)(Nc1cc(Cl)ccc1[S+]([O-])CCc1cn[nH]c1)c1cc2ccccc2o1 (stereo not drawn)
Between P and Q , whose recorded CCR2 % ANTAGONISM is greater? Your answer should be the label attached to the chosen record.
P

###

biological target: CCR2 (Homo sapiens (Human), UniProt P41597); assay: Calcium activity assayed on the FLIPR Tetra in HEK-Gqi5 cells stably expressing CCR2; details: FLIPR Tetra calcium assay
Sequence (P41597 whole entry, species assumed): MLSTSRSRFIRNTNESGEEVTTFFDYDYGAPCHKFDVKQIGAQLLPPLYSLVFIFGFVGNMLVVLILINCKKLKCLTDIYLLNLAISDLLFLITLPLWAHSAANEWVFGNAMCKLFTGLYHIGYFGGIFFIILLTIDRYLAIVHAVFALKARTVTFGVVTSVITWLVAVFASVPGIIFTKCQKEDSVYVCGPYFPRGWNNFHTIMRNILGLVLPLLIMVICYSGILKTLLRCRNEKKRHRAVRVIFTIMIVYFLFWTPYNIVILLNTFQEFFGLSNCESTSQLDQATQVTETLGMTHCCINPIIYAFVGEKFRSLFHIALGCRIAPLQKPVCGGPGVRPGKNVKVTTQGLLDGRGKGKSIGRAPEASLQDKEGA
endpoint_name: IC50 (nM)

Reference set (5 entries):
1) O=S(=O)(Nc1cc(Cl)ccc1SCc1cccnc1)c1cc2ccccc2o1: 22
2) C[S+]([O-])c1ccc(Cl)cc1NS(=O)(=O)c1ccc(C(F)(F)F)c([N+](=O)[O-])c1 (stereo not drawn): 54
3) Nc1cccc(C[S+]([O-])c2ccc(Cl)cc2NS(=O)(=O)c2ccc(Cl)cc2)c1 (stereo not drawn): 159
4) O=S(=O)(Nc1cc(Cl)ccc1[S+]([O-])Cc1ncccn1)c1cc2ccccc2o1 (stereo not drawn): 506
5) CSc1ccc(Cl)cc1NS(=O)(=O)c1cccc(Cl)c1F: 1920

a. O=S(=O)(Nc1cc(Cl)ccc1[S+]([O-])CCc1cn[nH]c1)c1cc2ccccc2o1 (stereo not drawn)
b. CS(=O)(=O)c1ccc(Cl)cc1NS(=O)(=O)c1ccc(F)cc1F
I would appreciate it if you could say which entry, a or b , has the lower IC50 value. Your answer should be the label attached to the chosen record.
b

a. N#Cc1ccc(S(=O)(=O)Cc2ccccc2)c(NS(=O)(=O)c2cc3ccccc3o2)c1
b. CC(C)(C)OC(=O)Nc1cc(CS(=O)(=O)c2ccc(Cl)cc2NS(=O)(=O)c2cc3ccccc3o2)cc[n+]1[O-]
I would appreciate it if you could say which entry, a or b , has the lower IC50 value. Your answer should be the label attached to the chosen record.
a

###

target: CCR2 (Homo sapiens (Human)); experiment: Calcium activity assayed on the FLIPR Tetra in HEK-Gqi5 cells stably expressing CCR2; type: cell-based; conditions: FLIPR Tetra calcium assay
endpoint_name: CCR2 % ANTAGONISM (%)

A. O=S(=O)(Cc1cc[nH]n1)c1ccc(Cl)cc1NS(=O)(=O)c1cc2ccccc2o1
B. O=c1[nH]cc(C[S+]([O-])c2ccc(Cl)cc2NS(=O)(=O)c2cc3ccccc3o2)c(=O)[nH]1 (stereo not shown)
I would appreciate it if you could say which entry, A or B , has the lower CCR2 % ANTAGONISM value. Your answer should be the label attached to the chosen record.
B

###

Biological target: CCR2 (Homo sapiens (Human), UniProt P41597)
Assay: Calcium activity assayed on the FLIPR Tetra in HEK-Gqi5 cells stably expressing CCR2
Settings: FLIPR Tetra calcium assay
Procedure: HEK-Gqi5 cells stably expressing CCR2 were cultured in (DMEM high glucose, 10% FBS, 1% PSA, 400 μg/ml geneticin and 50 μg/ml hygromycin. Appropriate positive control chemokines (MCP-1, MIP1A or RANTES) was used as the positive control agonist for screening compound-induced calcium activity assayed on the FLIPR^Tetra. The drug plates were prepared in 384-well microplates using the EP3 and the MuItiPROBE robotic liquid handling systems. Compounds were synthesized and tested for CCR^2 activity.
pIC50: −log10 of the molar value.
endpoint_name: pIC50

1) Nc1nc(CSc2ccc(Cl)cc2NS(=O)(=O)c2cc3ccccc3o2)cs1: 7.38

I. CC(=O)Nc1nc(C[S+]([O-])c2ccc(Cl)cc2NS(=O)(=O)c2cc3ccccc3o2)cs1 (centres unmarked)
II. CCCn1cnc(CSc2ccc(Cl)cc2NS(=O)(=O)c2cc3ccccc3o2)c1
III. O=S(=O)(Nc1cc(Cl)ccc1[S+]([O-])Cc1c[nH]cn1)c1cc2ccccc2o1 (centres unmarked)
Arrange these 3 molecules in increasing order of pIC50. Ranked list of labels, please, in the requested order.
I, II, III

###

molecular target: CCR2 (Homo sapiens (Human)); test: Calcium activity assayed on the FLIPR Tetra in HEK-Gqi5 cells stably expressing CCR2; assay type: cell-based; conditions: FLIPR Tetra calcium assay
endpoint_name: CCR2 % ANTAGONISM (%)

1) NCCC[S+]([O-])c1ccc(Cl)cc1NS(=O)(=O)c1cc2ccccc2o1 (centres unmarked): 63
2) Nc1nnc(C[S+]([O-])c2ccc(Cl)cc2NS(=O)(=O)c2cc3ccccc3o2)[nH]1 (centres unmarked): 48
3) CN(C)C(=O)CC[S+]([O-])c1ccc(Cl)cc1NS(=O)(=O)c1ccc(F)cc1F (centres unmarked): 93

a. Cc1n[nH]c(C)c1CCSc1ccc(Cl)cc1NS(=O)(=O)c1cc2ccccc2o1
b. CN(C)C(=O)CCSc1ccc(Cl)cc1NS(=O)(=O)c1ccc(F)cc1F
I would appreciate it if you could say which entry, a or b , has the lower CCR2 % ANTAGONISM value. Your answer should be the label attached to the chosen record.
b

Data origin: patent US9663460B2
